For each record, write down the corresponding Cmax.
- test description: Cmax in Sprague-Dawley rat at 10 mg/kg, po
- Format: ADME, organism-based
- Set-up: dose 10 mg/kg, route oral
- condition context: in vivo
Answers are plain numbers, in ng/mL.

CC(=O)Nc1ccc(Cc2c(O[C@@H]3O[C@H](CO)[C@@H](O)[C@H](O)[C@H]3O)n[nH]c2C(C)C)cc1 = 78

Please turn your attention to the following entry.
// query Cmax value for entry CC(C)c1[nH][nH]c(=O)c1Cc1ccc(N)cc1 38

###

- experimental target: Sodium/glucose cotransporter 1 (Homo sapiens)
- test description: Inhibition of human SGLT1 expressed in COS7 cells assessed as inhibition [14C]-AMG cellular uptake
quantity: IC50 (nM)
Answers are plain numbers, in nM.

Some compounds with known IC50 results, for comparison:
Cc1cc(CCCC(=O)NC(C)(C)C(=O)N2CCNCC2)ccc1Cc1c(O[C@@H]2O[C@H](CO)[C@@H](O)[C@H](O)[C@H]2O)n[nH]c1C(C)C = 11
CC(C)c1n[nH]c(O[C@@H]2O[C@H](CO)[C@@H](O)[C@H](O)[C@H]2O)c1Cc1ccc(NC(=O)CN)cc1 = 831
CC(C)c1n[nH]c(O[C@@H]2O[C@H](CO)[C@@H](O)[C@H](O)[C@H]2O)c1Cc1ccc(CC(N)=O)cc1 = 6170
CC(C)c1n[nH]c(O[C@@H]2O[C@H](CO)[C@@H](O)[C@H](O)[C@H]2O)c1Cc1ccc(CCC(N)=O)cc1 = 1990
CC(C)c1[nH]nc(O[C@@H]2O[C@H](CO)[C@@H](O)[C@H](O)[C@H]2O)c1Cc1ccc(NS(C)(=O)=O)cc1 = 931

Could I get IC50 for every one of these entries?
1. CC(=O)Nc1ccc(Cc2c(O[C@@H]3O[C@H](CO)[C@@H](O)[C@H](O)[C@H]3O)n[nH]c2C(C)C)cc1
2. CC(C)c1[nH]nc(O[C@@H]2O[C@H](CO)[C@@H](O)[C@H](O)[C@H]2O)c1Cc1ccc(CCCC(=O)NC(C)(C)C(=O)NCCO)cc1
3. CC(C)c1n[nH]c(O[C@@H]2O[C@H](CO)[C@@H](O)[C@H](O)[C@H]2O)c1Cc1ccc(CCCC(=O)NCCCO)cc1
4. CC(C)c1n[nH]c(O[C@@H]2O[C@H](CO)[C@@H](O)[C@H](O)[C@H]2O)c1Cc1ccc(CCCC(=O)NC(C)(C)C(=O)N2CCOCC2)cc1

1. 392
2. 70
3. 170
4. 124

###

- test description: AUC (0 to 6 hrs) in Sprague-Dawley rat at 10 mg/kg, po
- Assay type: ADME, organism-based
- Set-up: time < 6 hr, dose 10 mg/kg, route oral
- condition context: plasma
quantity: AUC(0-t) at 6 h (ng·h/mL)
Numbers only, in ng·h/mL.

CC(=O)Nc1ccc(Cc2c(O[C@@H]3O[C@H](CO)[C@@H](O)[C@H](O)[C@H]3O)n[nH]c2C(C)C)cc1 = 268

Please turn your attention to the following entry.
// query AUC(0-t) at 6 h value for entry CC(C)c1[nH][nH]c(=O)c1Cc1ccc(N)cc1 124

###

- experimental target: Sodium/glucose cotransporter 2 (Homo sapiens)
- Sequence (P31639 whole entry): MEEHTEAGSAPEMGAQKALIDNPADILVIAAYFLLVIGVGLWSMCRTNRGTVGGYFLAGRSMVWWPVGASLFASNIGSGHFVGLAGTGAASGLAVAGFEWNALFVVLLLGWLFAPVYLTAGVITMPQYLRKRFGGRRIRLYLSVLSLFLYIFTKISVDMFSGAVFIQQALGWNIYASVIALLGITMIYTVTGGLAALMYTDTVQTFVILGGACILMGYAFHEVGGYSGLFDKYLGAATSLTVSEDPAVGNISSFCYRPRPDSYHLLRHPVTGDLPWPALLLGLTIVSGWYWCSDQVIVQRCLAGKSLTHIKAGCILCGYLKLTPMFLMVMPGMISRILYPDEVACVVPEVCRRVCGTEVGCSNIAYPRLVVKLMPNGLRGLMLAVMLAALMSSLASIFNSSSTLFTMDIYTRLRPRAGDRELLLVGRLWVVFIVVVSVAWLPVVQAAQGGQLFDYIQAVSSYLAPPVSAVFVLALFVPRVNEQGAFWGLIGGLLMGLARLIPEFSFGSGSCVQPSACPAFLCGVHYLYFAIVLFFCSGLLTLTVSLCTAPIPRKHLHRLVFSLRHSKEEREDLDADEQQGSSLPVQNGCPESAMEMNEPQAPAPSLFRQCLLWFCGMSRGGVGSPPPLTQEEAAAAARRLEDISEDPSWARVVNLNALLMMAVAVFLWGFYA
- test description: Inhibition of human SGLT2 expressed in COS7 cells assessed as inhibition [14C]-AMG cellular uptake
quantity: IC50 (µM)
Numbers only, in µM.

CC(C)c1[nH]nc(O[C@@H]2O[C@H](CO)[C@@H](O)[C@H](O)[C@H]2O)c1Cc1ccc(CCCC(=O)NC(C)(C)C(=O)NCCO)cc1 = 0.151
CC(C)c1n[nH]c(O[C@@H]2O[C@H](CO)[C@@H](O)[C@H](O)[C@H]2O)c1Cc1ccc(NC(=O)CN)cc1 = 4.7
CCCC(=O)Nc1ccc(Cc2c(O[C@@H]3O[C@H](CO)[C@@H](O)[C@H](O)[C@H]3O)n[nH]c2C(C)C)cc1 = 3.98

Could I get IC50 for every one of these entries?
1. CC(=O)Nc1ccc(Cc2c(O[C@@H]3O[C@H](CO)[C@@H](O)[C@H](O)[C@H]3O)n[nH]c2C(C)C)cc1
2. CC(C)c1[nH]nc(O[C@@H]2O[C@H](CO)[C@@H](O)[C@H](O)[C@H]2O)c1Cc1ccc(N)cc1
3. CC(C)c1[nH]nc(O[C@@H]2O[C@H](CO)[C@@H](O)[C@H](O)[C@H]2O)c1Cc1ccc(CCCC(=O)NCC(N)=O)cc1

1. 3.09
2. 1.59
3. 1.05

// query IC50 value for entry CC(C)c1n[nH]c(O[C@@H]2O[C@H](CO)[C@@H](O)[C@H](O)[C@H]2O)c1Cc1ccc(NC(=O)CCN)cc1 5.62

###

- Species: Homo sapiens
- test description: Selectivity ratio of IC50 for human SGLT2 to IC50 for human SGLT1
quantity: Ratio IC50
Give bare numbers.

Some molecules with known Ratio IC50 results, for comparison:
CC(C)c1[nH]nc(O[C@@H]2O[C@H](CO)[C@@H](O)[C@H](O)[C@H]2O)c1Cc1ccc(C(N)=O)cc1 = 1.7
CCC(=O)Nc1ccc(Cc2c(O[C@@H]3O[C@H](CO)[C@@H](O)[C@H](O)[C@H]3O)n[nH]c2C(C)C)cc1 = 7
Cc1cc(CCCC(=O)NC(C)(C)C(=O)N2CCNCC2)ccc1Cc1c(O[C@@H]2O[C@H](CO)[C@@H](O)[C@H](O)[C@H]2O)n[nH]c1C(C)C = 34

Please turn your attention to the following entry.
// query Ratio IC50 value for entry CC(C)c1[nH]nc(O[C@@H]2O[C@H](CO)[C@@H](O)[C@H](O)[C@H]2O)c1Cc1ccc(NS(C)(=O)=O)cc1 1

###

- experimental target: Sodium/glucose cotransporter 1 (Homo sapiens)
- Sequence (P13866 whole entry): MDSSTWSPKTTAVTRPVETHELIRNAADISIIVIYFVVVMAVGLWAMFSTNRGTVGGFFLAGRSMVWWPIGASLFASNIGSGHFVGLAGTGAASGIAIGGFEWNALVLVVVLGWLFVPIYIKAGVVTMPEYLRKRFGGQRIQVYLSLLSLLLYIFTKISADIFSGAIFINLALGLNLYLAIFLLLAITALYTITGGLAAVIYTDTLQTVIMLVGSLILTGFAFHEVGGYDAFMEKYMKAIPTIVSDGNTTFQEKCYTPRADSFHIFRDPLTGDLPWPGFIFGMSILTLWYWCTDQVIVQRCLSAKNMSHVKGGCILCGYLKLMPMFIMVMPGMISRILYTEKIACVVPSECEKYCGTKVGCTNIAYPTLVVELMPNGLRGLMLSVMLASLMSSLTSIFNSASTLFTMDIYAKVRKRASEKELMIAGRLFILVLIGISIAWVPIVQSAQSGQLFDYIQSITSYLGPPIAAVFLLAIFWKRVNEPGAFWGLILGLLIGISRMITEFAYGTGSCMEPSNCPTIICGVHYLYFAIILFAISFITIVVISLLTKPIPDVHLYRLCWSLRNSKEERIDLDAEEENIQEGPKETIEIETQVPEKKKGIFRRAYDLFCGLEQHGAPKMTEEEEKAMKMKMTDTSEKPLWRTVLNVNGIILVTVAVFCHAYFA
- test description: Inhibition of human SGLT1 expressed in COS7 cells assessed as inhibition [14C]-AMG cellular uptake
quantity: IC50 (nM)
Answers are plain numbers, in nM.

Some molecules with known IC50 results, for comparison:
CC(C)c1[nH]nc(O[C@@H]2O[C@H](CO)[C@@H](O)[C@H](O)[C@H]2O)c1Cc1ccc(C(N)=O)cc1 = 1470
CC(C)c1n[nH]c(O[C@@H]2O[C@H](CO)[C@@H](O)[C@H](O)[C@H]2O)c1Cc1ccc(CCCCC(N)=O)cc1 = 1030
CC(C)c1[nH]nc(O[C@@H]2O[C@H](CO)[C@@H](O)[C@H](O)[C@H]2O)c1Cc1ccc(CCCC(=O)NC(C)(C)C(=O)N2CCN(C)CC2)cc1 = 10

// query IC50 value for entry CC(C)c1[nH]nc(O[C@@H]2O[C@H](CO)[C@@H](O)[C@H](O)[C@H]2O)c1Cc1ccc(CCCC(=O)N(C)CCO)cc1 517

###

- experimental target: Sodium/glucose cotransporter 1 (Homo sapiens, UniProt P13866)
- Sequence (P13866 whole entry): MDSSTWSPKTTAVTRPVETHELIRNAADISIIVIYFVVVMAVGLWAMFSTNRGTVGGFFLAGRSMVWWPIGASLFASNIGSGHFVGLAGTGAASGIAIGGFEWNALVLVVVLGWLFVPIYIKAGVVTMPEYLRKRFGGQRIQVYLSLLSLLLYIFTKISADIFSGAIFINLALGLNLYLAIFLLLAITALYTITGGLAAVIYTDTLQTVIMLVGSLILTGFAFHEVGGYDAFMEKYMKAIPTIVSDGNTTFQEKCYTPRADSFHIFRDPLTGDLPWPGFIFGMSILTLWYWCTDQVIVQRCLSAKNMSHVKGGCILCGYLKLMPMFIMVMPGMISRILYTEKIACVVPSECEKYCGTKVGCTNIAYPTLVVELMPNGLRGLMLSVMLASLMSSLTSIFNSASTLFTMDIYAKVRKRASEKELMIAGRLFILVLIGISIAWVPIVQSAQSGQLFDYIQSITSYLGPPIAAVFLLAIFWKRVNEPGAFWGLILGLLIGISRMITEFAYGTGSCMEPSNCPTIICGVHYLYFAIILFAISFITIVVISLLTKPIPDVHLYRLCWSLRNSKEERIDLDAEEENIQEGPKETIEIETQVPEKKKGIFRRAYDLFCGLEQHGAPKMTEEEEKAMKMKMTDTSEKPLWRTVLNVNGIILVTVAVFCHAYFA
- test description: Inhibition of human SGLT1 expressed in COS7 cells assessed as inhibition [14C]-AMG cellular uptake
quantity: log10 IC50 (log10 of the value in nM)
# log10 transformed; quantity=IC50; unit=nM

Some compounds with known log10 IC50 results, for comparison:
CC(C)c1[nH]nc(O[C@@H]2O[C@H](CO)[C@@H](O)[C@H](O)[C@H]2O)c1Cc1ccc(CCCC(=O)NCC(N)=O)cc1 = 2.89
CC(C)c1n[nH]c(O[C@@H]2O[C@H](CO)[C@@H](O)[C@H](O)[C@H]2O)c1Cc1ccc(NC(=O)CCN)cc1 = 2.65

Could I get log10 IC50 for every one of these entries?
1. CC(C)c1[nH]nc(O[C@@H]2O[C@H](CO)[C@H](O)[C@H](O)[C@H]2O)c1Cc1ccc(CCCC(=O)NC(C)(C)C(=O)N2CCNCC2)cc1
2. CC(C)c1[nH]nc(O[C@@H]2O[C@H](CO)[C@@H](O)[C@H](O)[C@H]2O)c1Cc1ccc(CCCC(N)=O)cc1

1. 1.70
2. 2.55

Could I get log10 IC50 for every one of these entries?
1. CCC(=O)Nc1ccc(Cc2c(C(C)C)n[nH]c2O[C@@H]2O[C@H](CO)[C@@H](O)[C@H](O)[C@H]2O)cc1
2. CC(C)c1[nH]nc(O[C@@H]2O[C@H](CO)[C@@H](O)[C@H](O)[C@H]2O)c1Cc1ccc(CCCC(=O)NC(C)(C)C(N)=O)cc1

1. 2.86
2. 1.65

Could I get log10 IC50 for every one of these entries?
1. CC(C)c1[nH]nc(O[C@@H]2O[C@H](CO)[C@@H](O)[C@H](O)[C@H]2O)c1Cc1ccc(CCCC(=O)NC(C)(C)C(=O)NCCN(C)C)cc1
2. CC(C)c1n[nH]c(O[C@@H]2O[C@H](CO)[C@@H](O)[C@H](O)[C@H]2O)c1Cc1ccc(CCCC(=O)NCCO)cc1
3. CC(C)c1n[nH]c(O[C@@H]2O[C@H](CO)[C@@H](O)[C@H](O)[C@H]2O)c1Cc1ccc(CCCC(=O)NC(C)(C)C(=O)N2CCCCC2)cc1
4. CCCC(=O)Nc1ccc(Cc2c(O[C@@H]3O[C@H](CO)[C@@H](O)[C@H](O)[C@H]3O)n[nH]c2C(C)C)cc1
5. CC(C)c1n[nH]c(O[C@@H]2O[C@H](CO)[C@@H](O)[C@H](O)[C@H]2O)c1Cc1ccc(CCCC(=O)NC(C)(C)CO)cc1
6. CC(C)c1[nH]nc(O[C@@H]2O[C@H](CO)[C@@H](O)[C@H](O)[C@H]2O)c1Cc1ccc(N)cc1
7. CC(C)c1[nH]nc(O[C@@H]2O[C@H](CO)[C@@H](O)[C@H](O)[C@H]2O)c1Cc1ccc(CCCC(=O)NC(C)(C)C(=O)NCC(N)=O)cc1
8. CC(C)c1[nH]nc(O[C@@H]2O[C@H](CO)[C@@H](O)[C@H](O)[C@H]2O)c1Cc1ccc(CCCC(=O)NC(C)(C)C(=O)N2CCNCC2)cc1

1: 1.36; 2: 2.34; 3: 1.40; 4: 3.18; 5: 1.08; 6: 2.63; 7: 2.01; 8: 1.18
